# SUBJECT_OF_TEST: Estrogen receptor beta (Homo sapiens)
# Sequence (Q92731 whole entry, the tested form may be a part): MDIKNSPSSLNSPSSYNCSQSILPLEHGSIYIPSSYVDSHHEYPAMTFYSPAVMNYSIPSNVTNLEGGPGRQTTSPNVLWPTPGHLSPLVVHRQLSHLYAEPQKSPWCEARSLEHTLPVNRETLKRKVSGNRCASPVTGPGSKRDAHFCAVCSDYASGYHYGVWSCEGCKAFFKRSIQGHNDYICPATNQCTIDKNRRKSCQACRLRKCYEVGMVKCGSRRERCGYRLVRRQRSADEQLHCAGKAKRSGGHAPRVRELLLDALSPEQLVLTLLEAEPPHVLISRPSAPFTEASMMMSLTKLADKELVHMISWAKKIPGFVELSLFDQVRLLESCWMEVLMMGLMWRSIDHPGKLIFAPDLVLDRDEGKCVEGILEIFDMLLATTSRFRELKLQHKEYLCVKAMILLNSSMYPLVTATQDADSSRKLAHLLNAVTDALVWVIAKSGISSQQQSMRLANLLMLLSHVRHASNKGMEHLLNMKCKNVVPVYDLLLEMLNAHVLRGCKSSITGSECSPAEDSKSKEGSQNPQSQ
# ASSAY_PROTOCOL: Agonist activity at ERbeta-LBD in human U2OS cells transfected with Gal4-DBD assessed as increase of transactivation activity after 18 hrs by luciferase reporter gene assay
# Type: functional, cell-based
# CONDITIONS: u2os
REPORTED_METRIC: pEC50

Known pEC50 results, listed for orientation:
{"columns": ["MOLECULE_SMILES", "REPORTED_METRIC", "RESULT"],
 "data": [
  ["COc1ccc2c(c1)CC[C@@H]1[C@@H]2CC[C@@]2(C)[C@H]1CC[C@@]2(O)C/C=C/CC(F)(F)C(F)(F)C(F)(F)F", "pEC50", "> 4.817"],
  ["C[C@]12CC[C@@H]3c4ccc(O)cc4CC[C@H]3[C@@H]1CC[C@@]2(O)C/C=C/CC(F)(C(F)(F)F)C(F)(F)F", "pEC50", "> 4.8"],
  ["COc1ccc2c(c1)CC[C@@H]1[C@@H]2CC[C@@]2(C)[C@H]1CC[C@@]2(O)C/C=C/CC(F)(F)C(F)(F)C(F)(F)C(F)(F)C(F)(F)C(F)(F)F", "pEC50", "> 4.902"]
]}

In the following, a different compound is considered.
Sample `C[C@]12CC[C@@H]3c4ccc(O)cc4CC[C@H]3[C@@H]1CC[C@@]2(O)/C=C/CC(F)(C(F)(F)F)C(F)(F)F` — what was its pEC50?
> 4.713

###

# SUBJECT_OF_TEST: Estrogen receptor beta (Homo sapiens)
# ASSAY_PROTOCOL: Agonist activity at ERbeta-LBD in human U2OS cells transfected with Gal4-DBD assessed as increase of transactivation activity after 18 hrs by luciferase reporter gene assay
pEC50: −log10 of the molar value.
REPORTED_METRIC: pEC50

Known pEC50 results, listed for orientation:
{"columns": ["MOLECULE_SMILES", "pEC50"],
 "data": [
  ["C[C@]12CC[C@@H]3c4ccc(O)cc4CC[C@H]3[C@@H]1CC[C@@]2(O)/C=C/CC(F)(F)C(F)(F)C(F)(F)F", 6.89],
  ["C[C@]12CC[C@@H]3c4ccc(O)cc4CC[C@H]3[C@@H]1CC[C@@]2(O)C/C=C/CC(F)(F)C(F)(F)C(F)(F)C(F)(F)C(F)(F)C(F)(F)F", 7.28]
]}

(1) C[C@]12CC[C@@H]3c4ccc(O)cc4CC[C@H]3[C@@H]1CC[C@@]2(O)C/C=C/CC(F)(F)C(F)(F)C(F)(F)F
(2) COc1ccc2c(c1)CC[C@@H]1[C@@H]2CC[C@@]2(C)[C@H]1CC[C@@]2(O)/C=C/CC(F)(F)C(F)(F)C(F)(F)F
Field: lower recorded pEC50 (choose 1 or 2 ) Use the label to indicate which entry you chose.
2

###

# SUBJECT_OF_TEST: Estrogen receptor beta (Homo sapiens)
# ASSAY_PROTOCOL: Antagonist activity at ERbeta-LBD in human U2OS cells transfected with Gal4-DBD assessed as inhibition of transactivation activity after 18 hrs by luciferase reporter gene assay
pIC50: −log10 of the molar value.
REPORTED_METRIC: pIC50

Sample `COc1ccc2c(c1)CC[C@@H]1[C@@H]2CC[C@@]2(C)[C@H]1CC[C@@]2(O)/C=C/CC(F)(F)C(F)(F)C(F)(F)C(F)(F)C(F)(F)C(F)(F)F` — what was its pIC50?
> 4.80

Values compiled from ChEMBL document CHEMBL1255573.
